assay remarks: chemical genetic growth profiling, strain panel (AID 1159580);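 further: tested at 20 µM; growth read once vehicle control cultures reached saturation at 30 °C; 1 = growth at the plate median or of vehicle wells; lower values mean less growth of the strain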
recorded conditions: S. cerevisiae deletion strains, growth OD, locus YMR277W, strain FCP1, active compounds read low
The whole screen tested about 5,500 compounds, of which about 2,000 (36%) were called active. Roughly 18% stayed inconclusive and do not appear here. The list shows a part of the results.

compound smiles	normalized growth
O=C(/C=C/c1ccc(Cl)cc1)Nc1cccc(Cl)c1	0.957
O=C(Nc1ccccc1Sc1ccc(C(F)(F)F)cc1[N+](=O)[O-])C(Cl)Cl	0.984
O=[N+]([O-])c1cc(C(F)(F)F)ccc1Sc1n[nH]c(-c2cc(Cl)cc(Cl)c2)n1	0.926
O=[N+]([O-])c1ccc(Sc2ccccc2)c([N+](=O)[O-])c1	0.868
CC(C)OC(=O)Nc1cc(Cl)cc(Cl)c1	0.939
N/C(=N/OCc1c(F)cccc1Cl)c1ccc(Cl)cc1	0.919

* * *

assay remarks: chemical genetic growth profiling, strain panel (AID 1159580)
recorded conditions: S. cerevisiae deletion strains, growth OD, locus YDR150W, strain NUM1, active compounds read low
Screen size: about 5,500 compounds; about 2,000 (36%) were called active. Another 18% or so got no clear call; they are omitted. Some of the results follow.
compounds and their reported normalized growth

compound	normalized growth
COc1cc2c(cc1OC)C(C)NCC2 (centres undefined)	1.01
O=C1NCCN=C(c2ccccc2)c2ccccc21	0.911
O=[N+]([O-])c1cc(C(F)(F)F)ccc1Sc1ccc(Cl)cc1	0.957
CC(=O)OC[C@@]1(O)C[C@@]23CCC4c5ccoc5CC[C@]4(C)C2CC[C@@H]1C3 (some centres undefined)	0.948
Cc1ccc(S(=O)(=O)N2CCC(C(c3ccccc3)c3ccccc3)CC2)cc1	0.948
O=S(=O)(c1ccc(Cl)cc1)N1CCN(Cc2ccccc2)CC1	0.986
Nc1ccccc1C(=O)NCCc1ccc(Cl)cc1	0.916
O=C(Cc1ccccc1)NC1CCN(S(=O)(=O)c2ccc(Cl)cc2)CC1	0.996
CCOC(=O)c1c[nH]c2c(F)cccc2c1=O	0.963
Cc1c(-c2csc(-c3ccc(Cl)cc3)n2)sc2ccc(Cl)cc12	1.01
COC(=O)c1cc(OC)c(OC)cc1NC(=O)Nc1cc(Cl)cc(Cl)c1	0.916
CCOC(=O)c1ccc(N2CC3CCCCN3C2c2ccc(Cl)c(Cl)c2)cc1 (centres undefined)	0.992
N/C(=N/O)c1cnccc1C(F)(F)F	0.986
Cn1c(=O)c2c(ncn2C)n(C)c1=O	0.998
Nc1nc(Sc2ccc(C(F)(F)F)cc2[N+](=O)[O-])n[nH]1	0.901
Cn1c(=O)c2c(ncn2CCCl)n(C)c1=O	0.998
Nc1nc(Sc2cc(-n3cccc3)c(Cl)cc2[N+](=O)[O-])n[nH]1	0.997
CCOC(=O)c1cnc(SCC(=O)c2ccc(Cl)cc2Cl)[nH]1	1.02
NC(Cc1ccc(Cl)cc1)C(=O)O (centres undefined)	0.974
O=C(O)c1cccc([N+](=O)[O-])c1C(=O)Nc1ccc(F)cc1	1.03
Cn1c(Sc2ccc(C(F)(F)F)cc2[N+](=O)[O-])nnc1C(F)(F)F	0.988
CCCn1c(=O)c2c(ncn2C)n(CCC)c1=O	1.02
COC(=O)c1cccc([N+](=O)[O-])c1-c1c(C(=O)OC)cccc1[N+](=O)[O-]	1.02
NC(N)=NCc1cccc(I)c1	1.01

* * *

assay remarks: chemical genetic growth profiling, strain panel (AID 1159580);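 further: tested at 20 µM; growth read once vehicle control cultures reached saturation at 30 °C; 1 = growth at the plate median or of vehicle wells; lower values mean less growth of the strain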
recorded conditions: S. cerevisiae deletion strains, growth OD, locus YPL241C, strain CIN2, active compounds read low
The whole screen tested about 5,500 compounds, of which about 2,000 (36%) were called active. Not shown: some 18% with an inconclusive outcome. Some of the results follow.
parameter: normalized growth

molecule	reported result
CCOC(=O)c1ccc(N2CC3CCCCN3C2c2ccc(Cl)c(Cl)c2)cc1 (stereo unspecified)	0.987
CCCCCC/C=C\CCCCCCCc1cccc(O)c1C(=O)O	0.997
CCCn1cnc2c1c(=O)n(CCCCC(C)=O)c(=O)n2C	1.01
O=c1cc(-c2ccccc2)[nH]c2nc(Cl)ccc12	1
Cn1c(=O)c2c(nc(/C=C/c3cccc(Cl)c3)n2C)n(C)c1=O	0.995
CCCCC/C=C\CC(O)/C=C/c1cccc(CC(O)CCCCO)n1 (stereo unspecified)	0.995

* * *

assay remarks: chemical genetic growth profiling, strain panel (AID 1159580);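 further: tested at 20 µM; growth read once vehicle control cultures reached saturation at 30 °C; 1 = growth at the plate median or of vehicle wells; lower values mean less growth of the strain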
recorded conditions: S. cerevisiae deletion strains, growth OD, locus YGL086W, strain mad1, active compounds read low
The whole screen tested about 5,500 compounds, of which about 2,000 (36%) were called active. Not shown: some 18% with an inconclusive outcome. The list shows a part of the results.
molecules and their reported normalized growth
parameter: normalized growth

molecule	parameter	reported result
N[C@@H](C(=O)N[C@@H]1C(=O)N2C(C(=O)O)=C(Cl)CS[C@H]12)c1ccccc1	normalized growth	1.01
CC1(C)CC23C(=O)CCC(O)C2(C)CCC13 (stereo not given)	normalized growth	1.01
CC(=O)OCC1=C(C(=O)O)N2C(=O)[C@@H](NC(=O)CSc3ccncc3)[C@H]2SC1	normalized growth	0.981
CC1=C(C(=O)O)N2C(=O)[C@@H](NC(=O)[C@@H](N)c3ccc(O)cc3)[C@H]2SC1	normalized growth	0.982
CNC(C)(C)Cc1ccccc1	normalized growth	0.997
C[N+]1(C)CCCC(OC(=O)C(O)(c2ccccc2)c2ccccc2)C1 (stereo not given)	normalized growth	1.02
O=C1c2ccccc2C(=O)c2ccccc21	normalized growth	0.967
O=C(N[C@@H](CO)[C@H](O)c1ccc([N+](=O)[O-])cc1)C(Cl)Cl	normalized growth	0.994
CC(=O)Oc1c(C)c(C)c2c(c1C)CCC(C)(CCCC(C)CCCC(C)CCCC(C)C)O2 (stereo not given)	normalized growth	0.991
CC(C)[C@@H]1CC[C@@H](C)C[C@H]1OC(=O)c1ccccc1	normalized growth	0.999

* * *

assay remarks: chemical genetic growth profiling, strain panel (AID 1159580);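 further: tested at 20 µM; growth read once vehicle control cultures reached saturation at 30 °C; 1 = growth at the plate median or of vehicle wells; lower values mean less growth of the strain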
recorded conditions: S. cerevisiae deletion strains, growth OD, locus YJL166W, strain qcr8
The campaign covered roughly 5,500 compounds. About 2,000 (36%) were called active. About 18% were inconclusive and are not listed. Rule as the data show it: active = normalized growth mostly below about 0.91 (no sharp cut-off); inconclusive = no clear call, values can overlap the other calls; inactive = mostly above about 0.92. Some of the results follow.
Outcomes: class 1 = active, class 0 = inactive

molecule	class label
COC(=O)CC1C(C)(C(=O)c2ccoc2)CC2OCC34C(CC(=O)OC)C5(C)CC36OC3(C)OC1(C(OC(C)=O)C6(OC(C)=O)C5OC(=O)C(C)C)C24O3 (stereo not drawn)	class 0
O=C(O)c1cc(=O)c2ccccc2[nH]1	class 0
CCCC(=O)Nc1ccc(OCC(O)CNC(C)C)c(C(C)=O)c1 (stereo not drawn)	class 0
O=C(/C=C/c1ccccc1)c1ccc(O[C@@H]2O[C@H](CO)[C@@H](O)[C@H](O)[C@H]2O)cc1O	class 0
CN1CCN(C2=Nc3cc(Cl)ccc3Nc3ccccc32)CC1	class 0
O=C(/C=C/c1ccc(O)cc1)c1ccc(O)cc1O	class 0
CC(=O)NS(=O)(=O)c1ccc(N)cc1	class 0
Cc1cc2nc3c(=O)[nH]c(=O)nc-3n(CC(O)C(O)C(O)CO)c2cc1C (stereo not drawn)	class 0
COC(=O)C[C@H]1C(C)(C)[C@@H](OC(C)=O)[C@@H]2CC3=C4CC(=O)O[C@@H](c5ccoc5)[C@]4(C)CCC3[C@@]1(C)C2=O (stereo partly drawn)	class 0
Cn1c(=O)c2c(ncn2CCO)n(C)c1=O	class 0
CCCCN(CC)c1c([N+](=O)[O-])cc(C(F)(F)F)cc1[N+](=O)[O-]	class 0
COc1ccc(NS(=O)(=O)c2ccc(N)cc2)nn1	class 0
CC(=O)NC1C(O)OC(COS(=O)(=O)O)C(OC2OC(C(=O)O)C(OC3OC(CO)C(OC4OC(C(=O)O)C(O)C(O)C4OS(=O)(=O)O)C(OS(=O)(=O)O)C3NS(=O)(=O)O)C(O)C2OS(=O)(=O)O)C1O (stereo not drawn)	class 0
O=C1C=CC(=O)c2c(O)c(Cl)c(Cl)c(O)c21	class 1
COc1ccc(-c2c(O)c3c(OC)c4c(cc3oc2=O)OC(C)(C)C=C4)cc1	class 0
CC(C)C1CCC(C(=O)N[C@@H](Cc2ccccc2)C(=O)O)CC1 (stereo partly drawn)	class 0
CCCN(CCC)c1c([N+](=O)[O-])cc(C(F)(F)F)cc1[N+](=O)[O-]	class 0
CC1(C)CC23C(=O)CCC(O)C2(C)CCC13 (stereo not drawn)	class 0
Cn1c(=O)[nH]c2ncn(C)c2c1=O	class 0
O=c1c(O)c(-c2ccccc2)oc2cccc(O)c12	class 1
O=C(O)CCC(=O)OC[C@@H](NC(=O)C(Cl)Cl)[C@H](O)c1ccc([N+](=O)[O-])cc1	class 0
ClC1C(Cl)C(Cl)C(Cl)C(Cl)C1Cl (stereo not drawn)	class 1
NNCc1ccccc1	class 0
Oc1cc2c(cc1O)C(c1ccccc1)CNCC2 (stereo not drawn)	class 0
NC(Cc1ccc(Cl)cc1)C(=O)O (stereo not drawn)	class 0
CNC(C)(C)Cc1ccccc1	class 0
O=C1c2cccc(O)c2C(=O)c2c(O)cccc21	class 1
COc1cc(OC)c2c(OC)c(-c3ccc4c(c3)OCO4)c(=O)oc2c1	class 0
O=C(/C=C/c1ccccc1)c1ccc(O)cc1O	class 1
O=C(CCc1ccc(O)cc1)c1c(O)cc(O)cc1O	class 0
Cn1c(=O)[nH]c2nc[nH]c2c1=O	class 0
O=C(O)[C@H]1/C(=C/CO)O[C@@H]2CC(=O)N21	class 0
CO/N=C(/C(=O)NC1C(=O)N2C(C(=O)OCOC(=O)C(C)(C)C)=C(/C=C\c3scnc3C)CSC12)c1csc(N)n1 (stereo not drawn)	class 0
O=c1c(O)cccc2cc(O)c(O)c(O)c12	class 1
NS(=O)(=O)c1cc2c(cc1Cl)NCNS2(=O)=O	class 0
CC(=O)OC1CCC23CC1(C)CCC2C(C)(C)CC3OC(C)=O (stereo not drawn)	class 0
C/C(=C\CO)CC[C@H](C)CCC[C@H](C)CCCC(C)C	class 1
CC(=O)OCC1=C(C(=O)O)N2C(=O)[C@@H](NC(=O)CSc3ccncc3)[C@H]2SC1	class 0
C=CC[C@@H]1/C=C(\C)C[C@H](C)C[C@H](OC)[C@H]2O[C@@](O)(C(=O)C(=O)N3CCCC[C@H]3C(=O)O[C@H](/C(C)=C/[C@@H]3CC[C@@H](O)[C@H](OC)C3)[C@H](C)[C@@H](O)CC1=O)[C@H](C)C[C@@H]2OC	class 0
O=C(Nc1ccc([N+](=O)[O-])cc1Cl)c1cc(Cl)ccc1O	class 1
CCCCCCCCCCCCCCCC(=O)OC[C@H](NC(=O)C(Cl)Cl)[C@H](O)c1ccc([N+](=O)[O-])cc1	class 0
CC(=O)c1c(O)cc(O)cc1O	class 0
OC[C@H]1O[C@@H](Oc2ccc(O)cc2)[C@H](O)[C@@H](O)[C@@H]1O	class 0
